# Assay details: Solubility of crystal form Form T in different solutions at 37° C. (about 60 mg in 2 mL, 2 h and 24 h; HPLC, pH, XRPD)
# Format: physicochemical
# Condition details: thermodynamic from solid; 37° C.; water, pH 7.0, pH 9.0, and FaSSIF
Endpoint name: solubility

stdin: Reported solubility for CCc1nc2c(N)ncc(-c3ccc(N4CCC(N5CCN(CC)CC5)CC4)c(OC)c3)c2nc1NC1CCOCC1 [Form T] : what is it?
stdout: < 700 µg/mL

====

# Assay details: Solubility at 37° C. in buffer solutions with different pH (about 10 mg in 1 ml, 2 h and 24 h); filtrate concentration and pH, XRPD of remaining solid
# Assay type: physicochemical
# Condition details: water, 37 °C, water, thermodynamic from solid, medium H2O, 2 h; read-out: Solubility at 37° C.
Endpoint name: solubility at 2 h (µg/mL)
Unit µg/mL implied. Number only.

stdin: Reported solubility at 2 h for CCc1nc2c(N)ncc(-c3ccc(N4CCC(N5CCN(CC)CC5)CC4)c(OC)c3)c2nc1NC1CCOCC1 [Form B] : what is it?
stdout: 39.5

====

# Assay details: Solubility at 37° C. in buffer solutions with different pH (about 10 mg in 1 ml, 2 h and 24 h); filtrate concentration and pH, XRPD of remaining solid
# Assay type: physicochemical
# Condition details: pH 1.2 buffer solution, 37 °C, pH 1.2, simulated gastric fluid, thermodynamic from solid, medium pH 1.2, 24 h; read-out: Solubility at 37° C. (mg/ml) 24 h
Endpoint name: solubility at 24 h

stdin: Reported solubility at 24 h for CCc1nc2c(N)ncc(-c3ccc(N4CCC(N5CCN(CC)CC5)CC4)c(OC)c3)c2nc1NC1CCOCC1 [Free base Form A] : what is it?
stdout: > 10 mg/mL

====

# Assay details: Solubility at 37° C. in buffer solutions with different pH (about 10 mg in 1 ml, 2 h and 24 h); filtrate concentration and pH, XRPD of remaining solid
# Assay type: physicochemical
# Condition details: FaSSIF, 37 °C, fassif, thermodynamic from solid, medium FaSSIF, 24 h; read-out: Solubility at 37° C.
Endpoint name: solubility at 24 h (µg/mL)
Unit µg/mL implied. Number only.

stdin: Reported solubility at 24 h for CCc1nc2c(N)ncc(-c3ccc(N4CCC(N5CCN(CC)CC5)CC4)c(OC)c3)c2nc1NC1CCOCC1 [Form B] : what is it?
stdout: 1400

====

# Assay details: Solubility at 37° C. in buffer solutions with different pH (about 10 mg in 1 ml, 2 h and 24 h); filtrate concentration and pH, XRPD of remaining solid
# Type: physicochemical
# Condition details: buffer solutions: pH 1.2, pH 3.0, pH 4.5, FeSSIF, SGF, 37 °C, aqueous buffer, thermodynamic from solid, 37° C.; pH 1.2, pH 3.0, pH 4.5, FeSSIF, and SGF buffer
Endpoint name: solubility

stdin: Reported solubility for CCc1nc2c(N)ncc(-c3ccc(N4CCC(N5CCN(CC)CC5)CC4)c(OC)c3)c2nc1NC1CCOCC1 [Form B] : what is it?
stdout: > 10000 µg/mL

====

# Assay details: Solubility at 37° C. in buffer solutions with different pH (about 10 mg in 1 ml, 2 h and 24 h); filtrate concentration and pH, XRPD of remaining solid
# Format: physicochemical
# Condition details: FeSSIF, 37 °C, fessif, thermodynamic from solid, medium FeSSIF, 24 h; read-out: Solubility at 37° C.
Endpoint name: solubility at 24 h

stdin: Reported solubility at 24 h for CCc1nc2c(N)ncc(-c3ccc(N4CCC(N5CCN(CC)CC5)CC4)c(OC)c3)c2nc1NC1CCOCC1 [Form B] : what is it?
stdout: > 10000 µg/mL

====

# Assay details: Solubility of crystal form Form T in different solutions at 37° C. (about 60 mg in 2 mL, 2 h and 24 h; HPLC, pH, XRPD)
# Type: physicochemical
# Condition details: pH 5.0 solution, aqueous buffer, thermodynamic from solid; 37° C.; pH 5.0
Endpoint name: solubility

stdin: Reported solubility for CCc1nc2c(N)ncc(-c3ccc(N4CCC(N5CCN(CC)CC5)CC4)c(OC)c3)c2nc1NC1CCOCC1 [Form T] : what is it?
stdout: ~8000 µg/mL

====

# Assay details: Solubility of crystal form Form T in different solutions at 37° C. (about 60 mg in 2 mL, 2 h and 24 h; HPLC, pH, XRPD)
# Type: physicochemical
# Condition details: thermodynamic from solid; water, 37° C., 24 h
Endpoint name: solubility at 24 h (µg/mL)
Unit µg/mL implied. Number only.

stdin: Reported solubility at 24 h for CCc1nc2c(N)ncc(-c3ccc(N4CCC(N5CCN(CC)CC5)CC4)c(OC)c3)c2nc1NC1CCOCC1 [Form T] : what is it?
stdout: 3

====

# Assay details: Solubility of crystal form Form T in different solutions at 37° C. (about 60 mg in 2 mL, 2 h and 24 h; HPLC, pH, XRPD)
# Assay type: physicochemical
# Condition details: pH 1.0 solution, simulated gastric fluid, thermodynamic from solid; pH 1.0, 37° C., 2 h
# Description: Approximately 60 mg of the sample was weighed and added into a 4 mL bottle, and 2 mL of different solvents (water, pH 1.0, 3.0, 5.0, 7.0, 9.0, FaSSIF, FeSSIF, and SGF) were added and the mixtures were stirred at 37° C. for 24 h after adding magnetic stirring bar. Samples were taken at 2 and 24 h respectively. After filtration, the sample concentration in the filtrate was tested by HPLC, and the pH value of the filtrate and the XRPD of the remaining solid were also measured. […]
Endpoint name: solubility at 2 h
Express the reported value numerically, then name its unit.

stdin: Reported solubility at 2 h for CCc1nc2c(N)ncc(-c3ccc(N4CCC(N5CCN(CC)CC5)CC4)c(OC)c3)c2nc1NC1CCOCC1 [Form T] : what is it?
stdout: 28 mg/mL

====

# Assay details: Solubility at 37° C. in buffer solutions with different pH (about 10 mg in 1 ml, 2 h and 24 h); filtrate concentration and pH, XRPD of remaining solid
# Assay type: physicochemical
# Condition details: SGF, 37 °C, simulated gastric fluid, thermodynamic from solid, medium SGF, 2 h; read-out: Solubility at 37° C. (mg/ml) 2 h
Endpoint name: solubility at 2 h

stdin: Reported solubility at 2 h for CCc1nc2c(N)ncc(-c3ccc(N4CCC(N5CCN(CC)CC5)CC4)c(OC)c3)c2nc1NC1CCOCC1 [Malate crystal form VII-A] : what is it?
stdout: > 10 mg/mL

====

# Assay details: Solubility at 37° C. in buffer solutions with different pH (about 10 mg in 1 ml, 2 h and 24 h); filtrate concentration and pH, XRPD of remaining solid
# Assay type: physicochemical
# Condition details: pH 1.2 buffer solution, 37 °C, pH 1.2, simulated gastric fluid, thermodynamic from solid, medium pH 1.2, 2 h; read-out: Solubility at 37° C. (mg/ml) 2 h
Endpoint name: solubility at 2 h

stdin: Reported solubility at 2 h for CCc1nc2c(N)ncc(-c3ccc(N4CCC(N5CCN(CC)CC5)CC4)c(OC)c3)c2nc1NC1CCOCC1 [Free base Form A] : what is it?
stdout: > 10 mg/mL

====

# Assay details: Solubility at 37° C. in buffer solutions with different pH (about 10 mg in 1 ml, 2 h and 24 h); filtrate concentration and pH, XRPD of remaining solid
# Format: physicochemical
# Condition details: FeSSIF, 37 °C, fessif, thermodynamic from solid, medium FeSSIF, 2 h; read-out: Solubility at 37° C. (mg/ml) 2 h
# Protocol: Approximately 10 mg of malate crystal form VII-A and free base Form A were weighed separately, and 1 ml of buffer solutions with different pH were added to make the solution supersaturated, and the mixtures were stirred at 37° C. for 2 h and 24 hours. The samples were filtered, and the filtrates were measured to determine the concentration and pH value, and the remaining solid was subjected to XRPD determination. The specific results were as follows: […]
Endpoint name: solubility at 2 h

stdin: Reported solubility at 2 h for CCc1nc2c(N)ncc(-c3ccc(N4CCC(N5CCN(CC)CC5)CC4)c(OC)c3)c2nc1NC1CCOCC1 [Malate crystal form VII-A] : what is it?
stdout: > 10 mg/mL

====

# Assay details: Solubility at 37° C. in buffer solutions with different pH (about 10 mg in 1 ml, 2 h and 24 h); filtrate concentration and pH, XRPD of remaining solid
# Type: physicochemical
# Condition details: SGF, 37 °C, simulated gastric fluid, thermodynamic from solid, medium SGF, 24 h; read-out: Solubility at 37° C.
Endpoint name: solubility at 24 h

stdin: Reported solubility at 24 h for CCc1nc2c(N)ncc(-c3ccc(N4CCC(N5CCN(CC)CC5)CC4)c(OC)c3)c2nc1NC1CCOCC1 [Form B] : what is it?
stdout: > 10000 µg/mL

====

# Assay details: Solubility of crystal form Form T in different solutions at 37° C. (about 60 mg in 2 mL, 2 h and 24 h; HPLC, pH, XRPD)
# Assay type: physicochemical
# Condition details: thermodynamic from solid; water, 37° C., 2 h
Endpoint name: solubility at 2 h (µg/mL)
Unit µg/mL implied. Number only.

stdin: Reported solubility at 2 h for CCc1nc2c(N)ncc(-c3ccc(N4CCC(N5CCN(CC)CC5)CC4)c(OC)c3)c2nc1NC1CCOCC1 [Form T] : what is it?
stdout: 2
